Source: PubChem BioAssay (NCI)

# Test system: OVCAR-4 ovarian
# ASSAY_NOTES: NCI-60 one-dose screen, 48 h (100 = growth as untreated, 0 = no growth, -100 = all killed)
# EXPERIMENTAL_CONTEXT: 10 µM unless noted
This is part of a sample that, as a whole, favours compounds with a hit. Of some 83,000 tested, about 20% had one in any assay.
MEASURE: growth (%)
Number only, in %; omit the unit.

>>> experimental_result("COc1cc(NC(=O)c2cc(O)c(CC=C(C)C)c(O)c2)cc2c1O[C@]1(C)CC[C@@H](O)C(C)(C)[C@H]1C2")
51.5
>>> experimental_result("COc1ccc(/C(C)=C(\\c2ccc(Cl)cc2)c2ccc(OCCN3CCCC3)cc2)cc1F")
32.3
>>> experimental_result("N[C@@H]1CCC[C@H]1NCCCCN1C(=O)c2cccc3cccc(c23)C1=O")
47.2
>>> experimental_result("N=C(N)c1ccc(-c2ccc(-c3ccc(Cl)cc3Cl)o2)nc1")
22.6
>>> experimental_result("CCOC(=O)c1c(C)nc2c(c1N)/C(=C/c1cc(OC)c(OC)c(OC)c1)C(=O)N2c1ccc(OC)cc1")
87
>>> experimental_result("CCOC(=O)Cc1csc2nc(-c3ccccc3)nn12")
105

Moving on to the next compound.
Notebook: `COc1cc2c(cc1OC)-c1ccc3cc4c(cc3c1N(CCCN1CCCCC1)C2)OCO4` , growth read as 63.4

* * *

# Tested on: MCF7 breast
# ASSAY_NOTES: NCI-60 one-dose screen, 48 h
# EXPERIMENTAL_CONTEXT: 10 µM unless noted
This is part of a sample that, as a whole, favours compounds with a hit. Of some 83,000 tested, about 20% had one in any assay. Active and inactive are the calls of the source. The calls were made as follows: active = growth percent below 10; inactive = the rest.
Would you mind answering with one of these outcomes? TRUE for active, FALSE for inactive

>>> category_label("COc1ccc(N(C)c2nc(Cl)nc3cnn(C)c23)cc1")
"FALSE"
>>> category_label("N=C(N)c1ccc(-c2ccc(-c3ccc(Cl)c(Cl)c3)o2)nc1")
"TRUE"
>>> category_label("Cc1nc(Nc2ccc(S(=O)(=O)Nc3cc(C)on3)cc2)c2ccccc2n1")
"FALSE"
>>> category_label("COc1ccc(-c2nc3sc4c(c3c(=O)[nH]2)CCCC4)c2ccccc12")
"TRUE"
>>> category_label("NC(=O)c1c(NC(=O)c2ccc(C(F)(F)F)cc2Cl)sc2c1CCC(=O)C2")
"TRUE"

Asked: I would be grateful if you could indicate the recorded call for `Cc1ccccc1NC(=O)CN(C)C` .
Given back: FALSE

Asked: Status in this test for `Cc1ccc(C)c2c1C(=O)OC2=O` ?
Given back: FALSE

Asked: Fill in: this test's call for `c1ccc2c(c1)ncn2-c1nc2ccccc2n2c1nc1ccccc12` is ___
Given back: TRUE

* * *

# System: SK-OV-3 ovarian
# ASSAY_NOTES: NCI-60 one-dose screen, 48 h (100 = growth as untreated, 0 = no growth, -100 = all killed)
# EXPERIMENTAL_CONTEXT: 10 µM unless noted
Compounds without any hit were thinned out: in the full panel of roughly 83,000, 20% have a hit.
MEASURE: growth (%)
Number in %, nothing else.

Worked examples follow.
>>> experimental_result("CN1CCN(C(=O)[C@]23CCC(C)(C)C[C@@H]2C2=CC[C@@H]4[C@@]5(C)Cc6c([nH]c7ccccc67)C(C)(C)[C@@H]5CC[C@@]4(C)[C@]2(C)CC3)CC1")
76.8
>>> experimental_result("C#C[C@]1(O)CC[C@H]2[C@@H]3CC=C4c5sc(N=C(N)N)nc5CC[C@]4(C)[C@H]3CC[C@@]21C")
-57.2
>>> experimental_result("CN(C)S(=O)(=O)n1cnc([C@@H]2[C@@H]3C(=O)OC[C@@H]3C[C@]23N=CN(Cc2ccccc2)C3=O)c1")
107
>>> experimental_result("COc1ccc(OC)c(C(=O)Nc2cccc(-c3cc(=O)c4ccccc4o3)c2)c1")
52.6
>>> experimental_result("Cc1ccc(C)c2c1C(=O)OC2=O")
95.2

growth reported for this compound `CCCc1nc2ccccn2c1Nc1ccc(C(=O)NO)cc1` : 80.9

# growth (compound: `Cc1csc(NC(=O)c2sc3nc(-c4cccs4)ccc3c2N)n1` ) is 96.1

Value of growth reported for the compound COc1cc(C2CC(=O)Nc3n[nH]c(-c4ccccc4)c32)cc(OC)c1OC (stereo not drawn) is 85.5
